Sourced from patent US12630530B2

IC50 listing for selected molecules.
# assay.system: FGFR2 V564F (Homo sapiens, UniProt P21802, V564F)
# Construct: purchased Signalchem F05-12FG
# Sequence (P21802 22-821 V564F): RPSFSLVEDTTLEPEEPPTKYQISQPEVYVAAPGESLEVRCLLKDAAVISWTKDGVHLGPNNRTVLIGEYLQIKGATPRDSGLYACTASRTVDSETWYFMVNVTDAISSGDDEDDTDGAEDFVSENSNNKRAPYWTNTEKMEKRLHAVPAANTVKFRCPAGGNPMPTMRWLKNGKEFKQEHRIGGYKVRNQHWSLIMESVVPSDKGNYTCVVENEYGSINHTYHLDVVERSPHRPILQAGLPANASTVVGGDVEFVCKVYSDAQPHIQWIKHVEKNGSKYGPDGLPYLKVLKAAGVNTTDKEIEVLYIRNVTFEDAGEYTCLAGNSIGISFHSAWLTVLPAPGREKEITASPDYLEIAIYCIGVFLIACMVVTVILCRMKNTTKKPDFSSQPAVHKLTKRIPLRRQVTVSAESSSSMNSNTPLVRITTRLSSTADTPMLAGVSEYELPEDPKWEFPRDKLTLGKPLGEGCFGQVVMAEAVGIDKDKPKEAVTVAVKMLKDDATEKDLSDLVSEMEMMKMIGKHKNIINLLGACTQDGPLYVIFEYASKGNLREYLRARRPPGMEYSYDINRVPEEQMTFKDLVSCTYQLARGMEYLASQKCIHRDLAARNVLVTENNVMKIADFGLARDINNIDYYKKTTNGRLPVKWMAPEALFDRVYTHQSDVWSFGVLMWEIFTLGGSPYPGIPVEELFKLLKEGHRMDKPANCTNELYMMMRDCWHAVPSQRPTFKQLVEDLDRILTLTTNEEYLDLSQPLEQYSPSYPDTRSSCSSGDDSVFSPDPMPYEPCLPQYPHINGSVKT
# protocol: Assay I: inhibitory activity against FGFR mutants (HTRF KinEASE-TK)
# Type: biochemical
# conditions: Table 1; ATP working concentration 10 μM, substrate TK 1 μM
Note: unit nM is implicit; provide only the numeric part.

// solved cases for IC50 follow
{"molecule": "CC(Oc1ccc2[nH]nc(C(=O)Nc3cnn(CC4CCN(C)CC4)c3)c2c1)c1c(Cl)cncc1Cl (stereo not drawn) [Compound 22]", "quantity.measured": "IC50", "measured.number": 0.6}
{"molecule": "CC(Oc1ccc2[nH]nc(C(=O)Nc3cnn(CCO)c3)c2c1)c1c(Cl)cncc1Cl (stereo not drawn) [Compound 2]", "quantity.measured": "IC50", "measured.number": 2}

API: the following record is the query input.
Entry under review: CC(Oc1ccc2[nH]nc(C(=O)Nc3ccc(N4CCOCC4)nc3)c2c1)c1c(Cl)cncc1Cl (stereo not drawn) [Compound 4] . Reported IC50?
9.5
